Biological target: CDK2/cyclin A (Homo sapiens, UniProt P24941)
Construct: made in house; host or cells: SF9 cells (recombinant baculovirus, pFASTBAC)
Assay: CDK2 Assay (in vitro kinase assay, cyclin A-dependent)
Format: biochemical
Settings: SPA, biotinylated Histone H1 peptide substrate; read-out: CDK2/cyclin A IC50
# note: boundary value 2000 nM maps to Not met; IC50 below it maps to Met

Reference set (4 entries):
>  <COMPOUND>
Cn1cc(-c2c(C3CCCNC3)nc3c(-c4cnn(C)c4)cnn3c2N)cn1 (centres unmarked)

>  <CATEGORY>
Not met

$$$$
>  <COMPOUND>
CC#Cc1c(C2CCCNC2)nc2c(-c3cnn(C)c3)cnn2c1N (centres unmarked)

>  <CATEGORY>
Met

$$$$
>  <COMPOUND>
Cn1cc(-c2cnn3c(N)c(C#N)c(C4CCCNC4)nc23)cn1 (centres unmarked)

>  <CATEGORY>
Met

$$$$
>  <COMPOUND>
Cn1cc(-c2cnn3c(N)c(-c4cccnc4)c(C4CCCNC4)nc23)cn1 (centres unmarked)

>  <CATEGORY>
Met

$$$$

For the next question, use this compound.
Input Cn1cc(-c2cnn3c(N)c(-c4ccncc4)c(C4CCCNC4)nc23)cn1 (centres unmarked) ; condition: IC50 strictly below 2000 nM. Does it hold? Not met

----------
Biological target: CDK2/cyclin A (Homo sapiens)
Construct: made in house; host or cells: SF9 cells (recombinant baculovirus, pFASTBAC)
Experiment: CDK2 Assay (in vitro kinase assay, cyclin A-dependent)
Type: biochemical
Conditions: read-out: CDK2/cyclin A IC50; SPA, biotinylated Histone H1 peptide substrate
# note: boundary value 0.9 µM maps to class 0; IC50 below it maps to class 1

Reference set (3 entries):
>  <CHEMICAL SMILES>
CNC(=O)Cc1c(C)nc2c(Br)cnn2c1N

>  <CATEGORY>
class 0

$$$$
>  <CHEMICAL SMILES>
Cc1nc2c(Br)cnn2c(N)c1CC(N)=O

>  <CATEGORY>
class 0

$$$$
>  <CHEMICAL SMILES>
Cc1c(N2CC[C@H](N)C2)nc2c(Br)cnn2c1N

>  <CATEGORY>
class 1

$$$$

Input Cc1nc2c(Br)cnn2c(N)c1CCO ; condition: IC50 strictly below 0.9 µM. Does it hold? class 1

Try this compound next: CCc1c(N2CC[C@H](N)C2)nc2c(Br)cnn2c1N class 1

----------
Target: recombinant His-CHK1 (Homo sapiens)
Construct: His-CHK1, In House Lot P976, MW ˜30 KDa, stored at −80° C; fused on or other part: His tag
Sequence (O14757 1-265 limits assumed): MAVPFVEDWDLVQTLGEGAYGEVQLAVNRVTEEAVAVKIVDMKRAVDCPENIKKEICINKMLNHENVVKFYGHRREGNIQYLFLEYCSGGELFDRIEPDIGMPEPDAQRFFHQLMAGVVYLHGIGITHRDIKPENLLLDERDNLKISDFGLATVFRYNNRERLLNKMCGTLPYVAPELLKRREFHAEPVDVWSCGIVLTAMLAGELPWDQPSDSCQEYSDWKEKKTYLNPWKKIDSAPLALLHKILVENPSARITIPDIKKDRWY
Test: CHK1 SPA Assay
Assay type: biochemical
Conditions: CHK1 IC50 [nM], CDC25C biotinylated peptide substrate, 1 uM ATP
MEASUREMENT NAME: IC50 (nM)
Numbers only, in nM.

Parameters: items (list). Returns: IC50 for each item.
1. Cn1cc(-c2cnn3c(N)c(-c4ccoc4)c(C4CCCNC4)nc23)cn1 (stereo not drawn)
2. Cn1cc(-c2cnn3c(N)c(-c4cccnc4)c(C4CCCNC4)nc23)cn1 (stereo not drawn)
3. Cn1cc(-c2cnn3c(N)c(C#N)c(C4CCCNC4)nc23)cn1 (stereo not drawn)
4. Cn1cc(-c2cnn3c(N)c(-c4ccncc4)c(C4CCCNC4)nc23)cn1 (stereo not drawn)
5. Cn1cc(-c2c(C3CCCNC3)nc3c(-c4cnn(C)c4)cnn3c2N)cn1 (stereo not drawn)

1: 340; 2: 507; 3: 102; 4: 229; 5: 102

Which measured IC50 value corresponds to Cn1cc(-c2cnn3c(N)c(-c4cccs4)c(C4CCCNC4)nc23)cn1 (stereo not drawn) ? 86
